SYSTEM_TESTED: T1, Bovine, dephosphorylated, Myelin Basic Protein (MBP), P02687
T1 chain: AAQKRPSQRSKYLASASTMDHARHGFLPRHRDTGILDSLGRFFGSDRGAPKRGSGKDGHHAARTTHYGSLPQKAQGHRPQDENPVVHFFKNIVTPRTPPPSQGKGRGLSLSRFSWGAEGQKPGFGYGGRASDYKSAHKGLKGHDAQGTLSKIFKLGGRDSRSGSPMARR
PROPERTY_NAME: MBP Kinase Activity

Lab book: MBP Kinase Activity of MINK1 (protein) MGDPAPARSLDDIDLSALRDPAGIFELVEVVGNGTYGQVYKGRHVKTGQLAAIKVMDVTEDEEEEIKQEINMLKKYSHHRNIATYYGAFIKKSPPGNDDQLWLVMEFCGAGSVTDLVKNTKGNALKEDCIAYICREILRGLAHLHAHKVIHRDIKGQNVLLTENAEVKLVDFGVSAQLDRTVGRRNTFIGTPYWMAPEVIACDENPDATYDYRSDIWSLGITAIEMAEGAPPLCDMHPMRALFLIPRNPPPRLKSKKWSKKFIDFIDTCLIKTYLSRPPTEQLLKFPFIRDQPTERQVRIQLKDHIDRSRKKRGEKEETE noted as Weak
